assay: qHTS assay to identify small molecule antagonists of the estrogen receptor alpha (ER-alpha) signaling pathway using the BG1 cell line - cell viability counter screen (AID 743081); settings: BG1Luc4E2 viability, CellTiter-Fluor, 22 h; series mostly up to 70.3 µM;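 further: compound given together with 17beta-estradiol as the ER stimulus; nearly all actives have a fitted effect of over 45% in size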
Records with an inconclusive call do not appear. Active and inactive are the calls of the source. The call rests on the fitted dose curve; in most records, active means well fitted cell-killing curve with a large enough effect in the repeat runs; inconclusive means weak or mixed curves, or effect the other way; inactive means flat fitted curve, though single readings scatter.
Select the correct class. Options are active, inactive and nothing else.

(Q) Identify the outcome logged in this assay for the molecule shown: CC[C@H](c1ccc(O)cc1)[C@@H](CC)c1ccc(O)cc1
(A) inactive

(Q) Identify the outcome logged in this assay for the molecule shown: O=C(O)c1c(Cl)cccc1Cl
(A) inactive

(Q) Identify the outcome logged in this assay for the molecule shown: NC(=O)N1C(=O)C(C(=O)c2cc(Cl)cs2)c2cc(F)c(Cl)cc21 (stereo not given)
(A) active

(Q) Identify the outcome logged in this assay for the molecule shown: O=C(O)c1ccc(Cl)c(Cl)c1
(A) inactive

(Q) Identify the outcome logged in this assay for the molecule shown: C=CC(=O)OCCn1c(=O)n(CCOC(=O)C=C)c(=O)n(CCOC(=O)C=C)c1=O
(A) active

(Q) Identify the outcome logged in this assay for the molecule shown: COC(=O)C1=C(C)NC(C)=C(C(=O)OCC(C)C)C1c1ccccc1[N+](=O)[O-] (stereo not given)
(A) inactive

(Q) Identify the outcome logged in this assay for the molecule shown: O=Cc1cc(O)ccc1Br
(A) inactive

(Q) Identify the outcome logged in this assay for the molecule shown: N#CSc1ccc(N)c([N+](=O)[O-])c1
(A) active

(Q) Identify the outcome logged in this assay for the molecule shown: CCCCCCC[N+](CC)(CC)CCCCc1ccc(Cl)cc1
(A) inactive

(Q) Identify the outcome logged in this assay for the molecule shown: CCCCCCCC[P+](CCCCCCCC)(CCCCCCCC)CCCCCCCC
(A) active

----------
test: A CellTox Green Cytotoxicity Assay to monitor cytotoxicity in HEK293 cells - 24 hour (AID 1224875); details: CellTox Green fluorescence; series mostly up to 76.8 µM; further: nearly all actives have a fitted effect of over 45% in size; further: potency means the concentration at half of the fitted maximal effect
Records with an inconclusive call do not appear. Active and inactive are the calls of the source. Calls follow the shape of the dose curve; as a rule, active = well fitted activation curve with a large enough effect in the repeat runs; inconclusive = weak or mixed curves; inactive = flat fitted curve, though single readings scatter.
Quantity: Potency

The following compounds have reported results that may help.
{"Compound": "OCCN1CCN(CC/C=C2/c3ccccc3Sc3ccc(C(F)(F)F)cc32)CC1", "Observed": "26.8 µM (active)"}
{"Compound": "CN(C)c1ccc(C2(c3ccc(N(C)C)cc3)OC(=O)c3cc(N(C)C)ccc32)cc1", "Observed": "inactive"}
{"Compound": "CCCCCOC(=O)CCCC", "Observed": "inactive"}
{"Compound": "O=C(Nc1ccc(Oc2ccc(Cl)cc2)c(Cl)c1)c1cc(I)cc(I)c1O", "Observed": "inactive"}
{"Compound": "CCCCCCCCCOC(=O)c1ccc(O)cc1", "Observed": "38.3 µM (active)"}

(Q) Check the records and state Potency for CC(=O)OCC(C)OC(C)=O (stereo unspecified)
(A) inactive

----------
assay: qHTS assay to identify small molecule antagonists of the glucocorticoid receptor (GR) signaling pathway - cell viability counter screen (AID 720693); conditions: GR-bla HeLa viability, CellTiter-Glo luminescence, 18 h, with 5 nM dexamethasone present; series mostly up to 58.5 µM; further: nearly all actives have a fitted effect of over 55% in size
Inconclusive results are not listed. Active and inactive are the calls of the source. Calls follow the shape of the dose curve; as a rule, active = well fitted cell-killing curve with a large enough effect in the repeat runs; inconclusive = weak or mixed curves, or effect the other way; inactive = no such curve, though single readings can be large or run the other way.
Select the correct class. Options are active, inactive and nothing else.

(Q) Identify the outcome logged in this assay for the compound shown: [Cl][Bi]([Cl])([c]1ccccc1)([c]1ccccc1)[c]1ccccc1
(A) active

(Q) Identify the outcome logged in this assay for the compound shown: CCCCCCCCNC(C)C(O)c1ccc(SC(C)C)cc1 (configuration not stated)
(A) active

(Q) Identify the outcome logged in this assay for the compound shown: CC(C)(C)C(=O)OCOC(=O)[C@@H]1N2C(=O)[C@@H](NC(=O)[C@H](N)c3ccccc3)[C@H]2SC1(C)C
(A) inactive

(Q) Identify the outcome logged in this assay for the compound shown: Cc1cc(=O)oc2cc(N(C)C)ccc12
(A) inactive

(Q) Identify the outcome logged in this assay for the compound shown: O=C(OCC1CO1)C1CCCCC1C(=O)OCC1CO1 (configuration not stated)
(A) inactive

(Q) Identify the outcome logged in this assay for the compound shown: CCc1cc(SCc2sc(-c3ccc(C(F)(F)F)cc3)nc2CN2CCN(c3ccc(OC)cc3)CC2)ccc1OCC(=O)O
(A) active

(Q) Identify the outcome logged in this assay for the compound shown: CC(=O)SC[C@@H](Cc1ccccc1)C(=O)NCC(=O)OCc1ccccc1
(A) inactive

----------
experiment: qHTS assay to identify small molecule antagonists of the estrogen related receptor (ERR) signaling pathway from Tox21 library - cell viability counter screen (AID 1224834); conditions: ERR reporter cells viability, CellTiter-Fluor, 17.5 h; series mostly up to 92.4 µM; further: nearly all actives have a fitted effect of over 30% in size
Results filed as inconclusive are left out. The source made the active and inactive calls. Calls come from the whole dose curve; as a rule, active = well fitted cell-killing curve with a large enough effect in the repeat runs; inconclusive = weak or mixed curves; inactive = flat fitted curve, though single readings scatter.
Select the correct class. Options are True = active, False = inactive and nothing else.

(Q) Identify the outcome logged in this assay for the molecule shown: Nc1c(Cl)cc(Cl)cc1Cl
(A) False

(Q) Identify the outcome logged in this assay for the molecule shown: CC(C)CCCCCCCCCCCCCCC(=O)O
(A) False

(Q) Identify the outcome logged in this assay for the molecule shown: [Cl][Au]([Cl])[Cl]
(A) True

(Q) Identify the outcome logged in this assay for the molecule shown: N#CC1(c2ccc(F)cc2)CCC(=O)CC1
(A) False

(Q) Identify the outcome logged in this assay for the molecule shown: O=C(OC[C@H]1O[C@@H](OC(=O)c2cc(O)c(O)c(OC(=O)c3cc(O)c(O)c(O)c3)c2)[C@H](OC(=O)c2cc(O)c(O)c(OC(=O)c3cc(O)c(O)c(O)c3)c2)[C@@H](OC(=O)c2cc(O)c(O)c(OC(=O)c3cc(O)c(O)c(O)c3)c2)[C@@H]1OC(=O)c1cc(O)c(O)c(OC(=O)c2cc(O)c(O)c(O)c2)c1)c1cc(O)c(O)c(OC(=O)c2cc(O)c(O)c(O)c2)c1
(A) True

(Q) Identify the outcome logged in this assay for the molecule shown: CC[C@H](c1ccc(O)cc1)[C@@H](CC)c1ccc(O)cc1
(A) True

(Q) Identify the outcome logged in this assay for the molecule shown: C=C(C)C(=O)OCC[N+](C)(C)C
(A) False

(Q) Identify the outcome logged in this assay for the molecule shown: CCCCCCCC[N+](CCCCCCCC)(CCCCCCCC)CCCCCCCC
(A) True

(Q) Identify the outcome logged in this assay for the molecule shown: CN1CCC(Nc2ncc3ncnc(Nc4ccc(F)c(Cl)c4)c3n2)CC1
(A) True

(Q) Identify the outcome logged in this assay for the molecule shown: C/C=C(\C)C(=O)OCc1ccccc1
(A) False

----------
test: qHTS RealTime-Glo MT Cell Viability Assay in HEK293 cells - 8 hour (AID 1224887); details: RealTime-Glo luminescence; series mostly up to 76.8 µM; further: nearly all actives have a fitted effect of over 50% in size
Records with an inconclusive call do not appear. The source made the active and inactive calls. The call rests on the fitted dose curve; in most records, active means well fitted cell-killing curve with a large enough effect in the repeat runs; inconclusive means weak or mixed curves, or effect the other way; inactive means flat fitted curve, though single readings scatter.
Select the correct class. Options are active, inactive and nothing else.

(Q) Identify the outcome logged in this assay for the molecule shown: CCCCCOC(=O)CCCC
(A) inactive

(Q) Identify the outcome logged in this assay for the molecule shown: NNc1nc(-c2ccc([N+](=O)[O-])cc2)cs1
(A) inactive

(Q) Identify the outcome logged in this assay for the molecule shown: CCCCN(CCCC)C(=O)N(CCCC)CCCC
(A) inactive

(Q) Identify the outcome logged in this assay for the molecule shown: Clc1ccc2nsnc2c1NC1=NCCN1
(A) inactive

(Q) Identify the outcome logged in this assay for the molecule shown: O=C(OCC1CO1)C1CCCCC1C(=O)OCC1CO1 (centres undefined)
(A) inactive

(Q) Identify the outcome logged in this assay for the molecule shown: O=C(O)c1ccc(Cl)c(Cl)c1
(A) inactive

(Q) Identify the outcome logged in this assay for the molecule shown: COC(=O)C1=C(C)NC(C)=C(C(=O)OCC(C)C)C1c1ccccc1[N+](=O)[O-] (centres undefined)
(A) active

(Q) Identify the outcome logged in this assay for the molecule shown: O=c1[nH]sc2cc(Cl)ccc12
(A) inactive

(Q) Identify the outcome logged in this assay for the molecule shown: CN(C)CCCOC1(Cc2ccccc2)CCCCCC1
(A) inactive

(Q) Identify the outcome logged in this assay for the molecule shown: CCOC(=O)O[C@]1(C(=O)OCCl)CC[C@H]2[C@@H]3CCC4=CC(=O)C=C[C@]4(C)[C@H]3[C@@H](O)C[C@@]21C
(A) inactive

(Q) Identify the outcome logged in this assay for the molecule shown: COc1cc(-c2nc(NC(=O)c3cc4cc(C)cc(C)c4n3CC(=O)O)sc2CCC2CCCCC2)c(OC)cc1Cl
(A) inactive

(Q) Identify the outcome logged in this assay for the molecule shown: NNC(=O)c1cccc(C(=O)NN)c1
(A) inactive

(Q) Identify the outcome logged in this assay for the molecule shown: CC[C@@]1(O)C(=O)OCc2c1cc1n(c2=O)Cc2cc3c(CN(C)C)c(O)ccc3nc2-1
(A) inactive

(Q) Identify the outcome logged in this assay for the molecule shown: Nc1ccc(N)c2ccccc12
(A) active

(Q) Identify the outcome logged in this assay for the molecule shown: CCCCCCCCCCn1cc[n+](CCCCCCCCCC)c1C
(A) active

(Q) Identify the outcome logged in this assay for the molecule shown: CSc1ccc2c(c1)C(N1CCN(C)CC1)Cc1ccccc1S2 (centres undefined)
(A) inactive

(Q) Identify the outcome logged in this assay for the molecule shown: Cc1cc(CCN2CCN(c3nsc4ccccc34)CC2)cc2c1NC(=O)CC2(C)C
(A) active

(Q) Identify the outcome logged in this assay for the molecule shown: CSc1cnc(C)cn1
(A) inactive

(Q) Identify the outcome logged in this assay for the molecule shown: CCC(N)(CO)CO
(A) inactive

The origin of these recorded values is PubChem BioAssay (Tox21).
